target: Aurora A kinase (Homo sapiens, UniProt O14965); test: Aurora A kinase inhibition; format: biochemical
Sequence (O14965 whole entry): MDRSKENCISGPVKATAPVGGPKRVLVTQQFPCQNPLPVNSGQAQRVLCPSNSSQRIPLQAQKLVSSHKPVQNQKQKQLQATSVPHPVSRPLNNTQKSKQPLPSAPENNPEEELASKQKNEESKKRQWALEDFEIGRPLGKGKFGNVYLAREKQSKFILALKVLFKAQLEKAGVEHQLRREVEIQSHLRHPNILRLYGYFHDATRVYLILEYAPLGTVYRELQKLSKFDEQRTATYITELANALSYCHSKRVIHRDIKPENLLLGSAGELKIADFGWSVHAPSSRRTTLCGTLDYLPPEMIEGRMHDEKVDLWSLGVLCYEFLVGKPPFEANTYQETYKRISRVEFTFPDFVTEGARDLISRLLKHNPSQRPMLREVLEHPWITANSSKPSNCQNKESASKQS
metric.name: IC50 (µM)
One number for each entry, in µM.

Input: Read the entry `CCc1cc(NC(=O)NCc2ccc(-c3cc(NC(=O)c4ccc(CN5CCN(C)CC5)cc4)[nH]n3)cc2)no1` and write its reported IC50.
Output: 1.04

====

target: FLT4 (VEGFR3) (Homo sapiens); assay: VEGFR3 Kinase-Glo kinase assay; type: biochemical; set-up: VEGFR3 (residues M800-Y1363); purchased Upstate (Billerica, MA, USA)
Sequence (P35916 800-1363): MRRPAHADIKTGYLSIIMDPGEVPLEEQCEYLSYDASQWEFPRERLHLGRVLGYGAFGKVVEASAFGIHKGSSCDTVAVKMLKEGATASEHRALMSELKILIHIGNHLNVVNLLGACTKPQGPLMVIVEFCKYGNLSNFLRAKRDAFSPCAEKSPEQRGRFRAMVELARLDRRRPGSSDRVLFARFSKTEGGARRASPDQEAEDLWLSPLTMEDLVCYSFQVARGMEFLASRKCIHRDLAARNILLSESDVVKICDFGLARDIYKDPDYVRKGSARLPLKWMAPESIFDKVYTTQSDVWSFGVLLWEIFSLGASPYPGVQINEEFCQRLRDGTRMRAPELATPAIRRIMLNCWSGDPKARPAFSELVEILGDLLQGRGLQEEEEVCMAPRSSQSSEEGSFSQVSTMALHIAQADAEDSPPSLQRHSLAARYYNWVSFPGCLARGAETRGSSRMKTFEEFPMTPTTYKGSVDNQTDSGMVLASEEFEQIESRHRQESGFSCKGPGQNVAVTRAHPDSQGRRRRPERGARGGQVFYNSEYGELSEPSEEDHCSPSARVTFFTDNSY
metric.name: pIC50
Numbers only, as −log10 of the molar value.

Input: Read the entry `CCc1cc(NC(=O)NCc2ccc(-c3cc(NC(=O)c4ccc(CN5CCN(C)CC5)cc4)[nH]n3)cc2)no1` and write its reported pIC50.
Output: 7.54

====

target: FLT3-ITD (Homo sapiens, UniProt P36888, ITD); test: FLT3 phosphorylation in transfected HEK293T cells, Western blot; conditions: HEK293T cells expressing FLT3-ITD, 1 hr, FLT3 ligand 50 ng/mL 5 min
Sequence (P36888 27-993, change not shown): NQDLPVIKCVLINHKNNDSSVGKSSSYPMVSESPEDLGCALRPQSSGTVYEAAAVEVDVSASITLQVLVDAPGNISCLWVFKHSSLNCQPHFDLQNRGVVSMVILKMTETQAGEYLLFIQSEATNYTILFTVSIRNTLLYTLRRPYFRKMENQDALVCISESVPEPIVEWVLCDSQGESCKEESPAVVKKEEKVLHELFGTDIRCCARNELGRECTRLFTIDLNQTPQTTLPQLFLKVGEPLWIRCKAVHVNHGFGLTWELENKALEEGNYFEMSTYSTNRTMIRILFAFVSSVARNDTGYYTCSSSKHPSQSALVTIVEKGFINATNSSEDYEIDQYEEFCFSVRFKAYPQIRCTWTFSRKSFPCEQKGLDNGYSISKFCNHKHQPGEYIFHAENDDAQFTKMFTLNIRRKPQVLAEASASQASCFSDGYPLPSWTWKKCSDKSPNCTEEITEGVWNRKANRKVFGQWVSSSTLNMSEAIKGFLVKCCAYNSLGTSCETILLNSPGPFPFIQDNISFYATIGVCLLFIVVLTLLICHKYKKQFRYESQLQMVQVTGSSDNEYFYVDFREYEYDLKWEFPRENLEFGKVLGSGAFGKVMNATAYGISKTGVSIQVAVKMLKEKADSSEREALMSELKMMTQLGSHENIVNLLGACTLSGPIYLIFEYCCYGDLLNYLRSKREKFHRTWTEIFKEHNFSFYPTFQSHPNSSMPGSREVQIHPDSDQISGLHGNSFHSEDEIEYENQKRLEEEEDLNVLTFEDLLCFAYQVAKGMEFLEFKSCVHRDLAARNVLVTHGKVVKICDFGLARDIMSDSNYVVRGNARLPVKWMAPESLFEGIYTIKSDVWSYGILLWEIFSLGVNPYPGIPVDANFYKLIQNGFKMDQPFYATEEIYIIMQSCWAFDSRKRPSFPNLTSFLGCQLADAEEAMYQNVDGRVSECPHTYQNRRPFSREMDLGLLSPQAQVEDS
metric.name: IC50

Input: Read the entry `CCc1cc(NC(=O)NCc2ccc(-c3cc(NC(=O)c4ccc(CN5CCN(C)CC5)cc4)[nH]n3)cc2)no1` and write its reported IC50.
Output: 10 to 100 nM

====

experiment: Pharmacokinetic analysis in rats; type: in vivo, Sprague-Dawley rats; conditions: male, Sprague-Dawley, rat, plasma, iv, 1.5 mg/kg, Rat IV
metric.name: half-life

Input: Read the entry CCc1cc(NC(=O)NCc2ccc(-c3cc(NC(=O)c4ccc(CN5CCN(C)CC5)cc4)[nH]n3)cc2)no1 [BPR1J-340] and write its reported half-life.
Output: ~528 min

====

molecular target: FLT3-WT (Homo sapiens); assay: FLT3 phosphorylation in transfected HEK293T cells, Western blot; conditions: HEK293T cells expressing FLT3-WT, 1 hr, FLT3 ligand 50 ng/mL 5 min
pIC50: −log10 of the molar value.
metric.name: pIC50

Input: Give pIC50 only, for `CCc1cc(NC(=O)NCc2ccc(-c3cc(NC(=O)c4ccc(CN5CCN(C)CC5)cc4)[nH]n3)cc2)no1` , using FLT3-WT (Homo sapiens) data.
Output: 7.00 to 8.00
